# TARGET_DESC: RARγ (Homo sapiens)
# Sequence (P13631 185-419 limits assumed): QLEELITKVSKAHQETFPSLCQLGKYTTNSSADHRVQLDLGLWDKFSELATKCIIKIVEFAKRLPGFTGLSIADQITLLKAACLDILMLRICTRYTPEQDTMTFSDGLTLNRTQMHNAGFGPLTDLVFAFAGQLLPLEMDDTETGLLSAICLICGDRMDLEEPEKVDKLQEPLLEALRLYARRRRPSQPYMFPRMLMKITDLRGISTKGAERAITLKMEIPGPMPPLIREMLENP
# EXPERIMENT_SUMMARY: Transactivation, ER/RAR-γ hybrid receptor + ERE-CAT reporter cotransfected in HeLa cells
REPORTED_METRIC: EC50 (nM)
One number for each entry, in nM.

Tell me the measured EC50 of C/C(=C\c1cc(C(=O)O)cs1)c1cc2c(cc1C)C(C)(C)CCC2(C)C , please.
1000

----------
# Test system: human RPE cells
# EXPERIMENT_SUMMARY: [3H]thymidine incorporation / proliferation of cultured human RPE cells
# SETUP_CONDITIONS: read-out: RPE 148 IC50 (50% inhibition of RPE cell growth relative to mock treated RPE cells); measured as in Example 2
REPORTED_METRIC: IC50 (nM)
Numbers only, in nM.

Tell me the measured IC50 of CC1=C(/C=C/C(C)=C/C=C/C(C)=C\C(=O)O)C(C)(C)CCC1 [13-cis RA, 13-cis-retinoic acid, reference compound] , please.
30

Values were extracted from patent US6573271B2.
